System: human GLP-1 receptor (human, UniProt P43220 24-463)
Experiment notes: cell-based or functional assay
Bridge positions count the residues as written; N and C are the ends. Square brackets hold non-standard residues; d marks the D form. Ends that are not written are not given here. C20L5A = not defined here; Aib = CC(C)(N)C(=O)O
As shown below, each of these binders has a reported EC50 of receptor-mediated cAMP synthesis, GLP1R (nM), 03/26 value.
Dear colleague, please return just the value in nM, with no unit written.

Y[Aib]EGTYTSDYSIYLDKCAA[Aib]EFVCWLIAGGPSSGAPPPS-NH2 (linker 17-24 via C20L5A; not fully specified; reading uncertain) [6Y, 27I, C(17-24)-C20L5A]; 0.06
Y[Aib]EGTYTNDYSIYLDKCAA[Aib]EFVCWLIAGGPSSGAPPPS-NH2 (linker 17-24 via C20L5A; not fully specified; reading uncertain) [6Y, 8N, 27I, C(17-24)-C20L5A]; 0.07
Y[Aib]EGTFTSDYSIYCDKQAA[Aib]CFVNWLIAGGPSSGAPPPS-NH2 (linker 14-21 via C20L5A; not fully specified; reading uncertain) [mCMV266 (27I, C(14-21)-C20L5A)]; 0.06
Y[Aib]EGTYTSDYSIYCDKQAA[Aib]CFVNWLIAGGPSSGAPPPS-NH2 (linker 14-21 via C20L5A; not fully specified; reading uncertain) [6Y, 27I, C(14-21)-C20L5A]; 0.07

Prompt: Name the reported EC50 of receptor-mediated cAMP synthesis, GLP1R (nM), 03/26 value associated with the binder Y[Aib]EGTFTSDYSIYKDKQAA[Aib]KFVNWLLAGGPSSGAPPPS-NH2 (bridge 14-21; not fully specified (bridges); also: K4 staple carries PEG-fatty acid) [mCMD307 (2050-K4)]
Response: 0.01

The measurements presented in this section are drawn from patent US20250320252A1.
